molecular target: T1, recombinant human TfR-1, His-tagged (Sino Biological 11020-H07H) (human, UniProt P02786 89-760); test: SPR, His-captured TfR1
T1 construct: bought; His-tagged; also called hTfR1; hTfR-1
T1 sequence (P02786 89-760 limits assumed): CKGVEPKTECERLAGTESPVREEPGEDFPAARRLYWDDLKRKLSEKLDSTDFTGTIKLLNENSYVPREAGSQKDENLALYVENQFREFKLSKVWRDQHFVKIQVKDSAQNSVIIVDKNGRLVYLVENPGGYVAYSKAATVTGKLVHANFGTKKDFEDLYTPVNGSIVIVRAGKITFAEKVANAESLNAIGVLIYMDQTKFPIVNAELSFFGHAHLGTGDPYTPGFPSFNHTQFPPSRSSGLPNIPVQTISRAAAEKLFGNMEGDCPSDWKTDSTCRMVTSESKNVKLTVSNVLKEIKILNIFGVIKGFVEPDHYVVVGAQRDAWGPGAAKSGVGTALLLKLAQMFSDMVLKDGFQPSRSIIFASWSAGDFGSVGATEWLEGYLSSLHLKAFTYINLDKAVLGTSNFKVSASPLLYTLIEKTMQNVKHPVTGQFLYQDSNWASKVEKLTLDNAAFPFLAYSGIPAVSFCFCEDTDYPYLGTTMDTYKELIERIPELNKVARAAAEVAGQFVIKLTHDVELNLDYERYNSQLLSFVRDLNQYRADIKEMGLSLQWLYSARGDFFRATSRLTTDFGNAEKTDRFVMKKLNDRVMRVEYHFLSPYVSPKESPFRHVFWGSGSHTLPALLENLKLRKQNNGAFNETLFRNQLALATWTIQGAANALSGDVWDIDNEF
observation_type: koff (s⁻¹)

{"columns": ["binder", "koff / s⁻¹"],
 "data": [
  ["Clone C variant 25 VNAR-hFc (Fc fusion, not shown: a dimerising Fc or GST) ARVDQTPQTITKETGESLTINCVLRDSNCALSSTYWYRKKSGSTNEENISKGGRYVETVNSGSKSFSLRINDLTVEDSGTYRCNVVQYPSYDNPFWCDVYGDGTAVTVN", 0.000569],
  ["Clone C variant 9 VNAR-hFc (Fc fusion, not shown: a dimerising Fc or GST) ARVDQTPQTITKETGESLTINCVLRDSNCALSSTYWYRKKSGSTNEENISKGGRYVETVNSGSKSFSLRINDLTVEDSGTYRCNVVQWPTLSSPFWCDVYGDGTAVTVN", 0.000754]
]}

// data source = patent US20210403591A1
